molecular target: beta-catenin/TCF4 engagement (Homo sapiens); construct: expressed in transfected cells; host or cells: HEK293; experiment: Nano-BRET target engagement assay (B-cat-Halo & TCF4-Luc in HEK293 cells); assay type: cell-based; conditions: read-out: NanoBRET Abs IC50
Sequence (P35222 whole entry): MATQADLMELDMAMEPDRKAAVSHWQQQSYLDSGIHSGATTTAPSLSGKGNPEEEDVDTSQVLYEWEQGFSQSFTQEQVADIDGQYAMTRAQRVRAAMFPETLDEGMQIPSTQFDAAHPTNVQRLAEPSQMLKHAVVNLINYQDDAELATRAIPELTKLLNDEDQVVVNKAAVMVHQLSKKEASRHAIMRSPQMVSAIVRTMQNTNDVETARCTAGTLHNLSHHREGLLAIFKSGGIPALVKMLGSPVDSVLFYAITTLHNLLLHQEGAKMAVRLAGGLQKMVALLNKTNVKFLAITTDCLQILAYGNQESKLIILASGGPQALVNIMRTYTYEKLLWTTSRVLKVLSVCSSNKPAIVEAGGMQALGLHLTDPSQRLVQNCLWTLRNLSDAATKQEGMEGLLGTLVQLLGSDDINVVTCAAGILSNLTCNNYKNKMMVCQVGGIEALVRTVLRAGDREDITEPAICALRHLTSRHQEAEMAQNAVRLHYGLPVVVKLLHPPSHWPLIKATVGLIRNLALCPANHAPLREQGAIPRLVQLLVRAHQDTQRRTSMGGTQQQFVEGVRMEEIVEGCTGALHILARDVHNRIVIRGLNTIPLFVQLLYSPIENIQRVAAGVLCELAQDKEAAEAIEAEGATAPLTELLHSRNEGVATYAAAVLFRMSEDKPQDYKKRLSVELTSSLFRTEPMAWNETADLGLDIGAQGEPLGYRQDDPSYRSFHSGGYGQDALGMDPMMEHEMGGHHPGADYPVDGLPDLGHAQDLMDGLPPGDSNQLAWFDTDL
Item-by-item account of pIC50
pIC50 here is simply -log10 of the concentration when that concentration is written in mol/L.

These recorded examples may help you get a feel for the data.
Ask | May I ask what pIC50 has been recorded for CC(=O)N1CCC[C@]12CC=CCCCC1(CCCC=CCCCOC(=O)N3CC[C@@](C(=O)N[C@@H](Cc4ccsc4)C(=O)N[C@@H](Cc4csc5ccccc45)C(=O)N[C@H](C)C(N)=O)(C3)NC(=O)[C@H](Cc3ccccc3)NC(=O)[C@H](Cc3ccccc3)NC(=O)[C@H](C)NC(=O)[C@H](C)NC(=O)[C@H](Cc3cccc(C(=O)O)c3)NC(=O)[C@H](CC(=O)O)NC1=O)NC(=O)[C@H](CC(C)(C)C)NC(=O)[C@H](CC(=O)O)NC2=O (stereo partly drawn) ?
Reply | 5.01

Ask | May I ask what pIC50 has been recorded for CC(=O)N1CCC[C@]12CC=CCCCC1(CCCC=CCCCOC(=O)N3CCC(C(=O)N[C@@H](Cc4ccsc4)C(=O)N[C@@H](Cc4csc5ccccc45)C(=O)N[C@@H](C)C(N)=O)(CC3)NC(=O)[C@H](CC(C)C)NC(=O)[C@H](Cc3ccccc3)NC(=O)[C@H](C)NC(=O)[C@H](CCC(N)=O)NC(=O)[C@H](Cc3cccc(C(=O)O)c3)NC(=O)[C@H](CC(=O)O)NC1=O)NC(=O)[C@H](CC(C)(C)C)NC(=O)[C@H](CC(=O)O)NC2=O (stereo partly drawn) [I-2593] ?
Reply | 4.53

Ask | May I ask what pIC50 has been recorded for CC(=O)N1CCC[C@]12CC=CCCCC1(CCCC=CCCCOC(=O)N3CC[C@@](C(=O)N[C@@H](Cc4ccsc4)C(=O)N[C@@H](Cc4csc5ccccc45)C(=O)N[C@H](CO)C(=O)N[C@@H](C)C(N)=O)(C3)NC(=O)[C@@H](CO)NC(=O)[C@H](Cc3ccccc3)NC(=O)[C@H](C)NC(=O)C(C)(C)NC(=O)[C@H](Cc3cccc(C(=O)O)c3)NC(=O)[C@H](CC(=O)O)NC1=O)NC(=O)[C@H](CC(C)(C)C)NC(=O)[C@H](CC(=O)O)NC2=O (stereo partly drawn) ?
Reply | 4.79

Ask | May I ask what pIC50 has been recorded for CC(=O)N1CCC[C@]12CC=CCCCC1(CCCC=CCCCOC(=O)N3CC[C@@](C(=O)N[C@@H](Cc4ccsc4)C(=O)N[C@@H](Cc4csc5ccccc45)C(=O)N[C@@H](CCC(N)=O)C(N)=O)(C3)NC(=O)[C@H](CCC(=O)N3CCN(CC(F)(F)F)CC3)NC(=O)[C@H](Cc3ccccc3)NC(=O)[C@H](C)NC(=O)[C@H](C)NC(=O)[C@H](CN(CC(=O)O)CC(F)(F)F)NC(=O)[C@H](CC(=O)O)NC1=O)NC(=O)[C@H](CC(C)(C)C)NC(=O)[C@H](CC(=O)O)NC2=O (stereo partly drawn) ?
Reply | 5.15

Ask | May I ask what pIC50 has been recorded for CC(=O)N1CCC[C@]12CC=CCCCC1(CCCC=CCCCCCC[C@@](C)(C(=O)N[C@@H](Cc3ccccc3Cl)C(=O)N[C@@H](Cc3csc4ccccc34)C(=O)N[C@@H](CCC(N)=O)C(N)=O)NC(=O)[C@H]([C@@H](C)O)NC(=O)[C@H](Cc3ccccc3)NC(=O)[C@H](C)NC(=O)[C@H](C)NC(=O)[C@H](CCC(=O)O)NC(=O)[C@H](CC(=O)O)NC1=O)NC(=O)[C@H](CC(C)(C)C)NC(=O)[C@H](CC(=O)O)NC2=O (stereo partly drawn) [I-1089] ?
Reply | 5.05

Turning to the following compound.
Ask | May I ask what pIC50 has been recorded for CC(=O)N1CCC[C@]12CC=CCCCC1(CCCC=CCCCOC(=O)N3CC[C@@](C(=O)N[C@@H](Cc4ccsc4)C(=O)N[C@@H](Cc4csc5ccccc45)C(=O)NC(CCCCNC(=O)c4ccc5c(c4)B(O)OC5)C(N)=O)(C3)NC(=O)[C@H](CC(C)C)NC(=O)[C@H](Cc3ccccc3)NC(=O)[C@H](C)NC(=O)[C@H](C)NC(=O)[C@H](CN(CC(=O)O)CC(F)(F)F)NC(=O)[C@H](CC(=O)O)NC1=O)NC(=O)[C@H](CC(C)(C)C)NC(=O)[C@H](CC(=O)O)NC2=O (stereo partly drawn) ?
Reply | 4.97

This collection of values is drawn from patent US20240116985A1.
